tested on: LNCaP tumor-transplanted mouse; assay: Internal radioactivity distribution using LNCaP tumor-transplanted mouse; assay type: in vivo; conditions: 4 h after administration
recorded metric: Muscle (% ID/g)
Your answer should be a plain number; it is taken to be in % ID/g.

Worked examples, 3 compounds total:
O=C([O-])CN(CCN(CCc1ccc(NC(=O)[C@H](CCCCNC(=O)CCC(=O)NCCCC[C@H](NC(=O)N[C@@H](CCC(=O)O)C(=O)O)C(=O)O)NC(=O)CCCc2ccc(I)cc2)cc1)CCN(CC(=O)[O-])Cc1cccc(C(=O)[O-])n1)Cc1cccc(C(=O)[O-])n1.[111In+3] [[^111In]In-Neunpa-2] = 0.61
O=C([O-])CN(Cc1cccc(C(=O)[O-])n1)C[C@H](Cc1ccc(NC(=O)CCCCCNC(=O)CCC(=O)NCCCC[C@H](NC(=O)N[C@@H](CCC(=O)O)C(=O)O)C(=O)O)cc1)N(CC(=O)[O-])Cc1cccc(C(=O)[O-])n1.[111In+3] [[^111In]In-Octapa-1, reference compound] = 0.10
O=C([O-])CN1CCN(C(CCC(=O)NCCCC[C@H](NC(=O)N[C@@H](CCC(=O)O)C(=O)O)C(=O)O)C(=O)[O-])CCN(CC(=O)[O-])CCN(C(CCC(=O)Nc2ccccc2)C(=O)[O-])CC1.[111In+3] (stereo partly shown) [[^111In]In-PSMA-DB, reference compound] = 0.21

As a next step, examine the compound that follows.
I'm curious: which Muscle was measured for O=C([O-])CN(Cc1cccc(C(=O)[O-])n1)C[C@H](Cc1ccc(NC(=O)[C@H](CCCCNC(=O)CCC(=O)NCCCC[C@H](NC(=O)N[C@@H](CCC(=O)O)C(=O)O)C(=O)O)NC(=O)CCCc2ccc(I)cc2)cc1)N(CC(=O)[O-])Cc1cccc(C(=O)[O-])n1.[111In+3] [[^111In]In-Octapa-2] tested on LNCaP tumor-transplanted mouse?
0.63

* * *

system: LNCaP tumor-transplanted mouse; experiment: Internal radioactivity distribution using LNCaP tumor-transplanted mouse; type: in vivo; conditions: 4 h after administration
recorded metric: Spleen (% ID/g)
Your answer should be a plain number; it is taken to be in % ID/g.

Worked examples, 4 compounds total:
O=C([O-])CN(Cc1cccc(C(=O)[O-])n1)C[C@H](Cc1ccc(NC(=O)CCCCCNC(=O)CCC(=O)NCCCC[C@H](NC(=O)N[C@@H](CCC(=O)O)C(=O)O)C(=O)O)cc1)N(CC(=O)[O-])Cc1cccc(C(=O)[O-])n1.[111In+3] [[^111In]In-Octapa-1, reference compound] = 3.55
O=C([O-])CN(CCN(CCc1ccc(NC(=O)[C@H](CCCCNC(=O)CCC(=O)NCCCC[C@H](NC(=O)N[C@@H](CCC(=O)O)C(=O)O)C(=O)O)NC(=O)CCCc2ccc(I)cc2)cc1)CCN(CC(=O)[O-])Cc1cccc(C(=O)[O-])n1)Cc1cccc(C(=O)[O-])n1.[111In+3] [[^111In]In-Neunpa-2] = 8.16
O=C([O-])CN1CCN(C(CCC(=O)NCCCC[C@H](NC(=O)N[C@@H](CCC(=O)O)C(=O)O)C(=O)O)C(=O)[O-])CCN(CC(=O)[O-])CCN(C(CCC(=O)Nc2ccccc2)C(=O)[O-])CC1.[111In+3] (some centres unmarked) [[^111In]In-PSMA-DB, reference compound] = 2.39
O=C([O-])CN1CCN(C(CCC(=O)NCCCC[C@H](NC(=O)N[C@@H](CCC(=O)O)C(=O)O)C(=O)O)C(=O)[O-])CCN(CC(=O)[O-])CCN(C(CCC(=O)N[C@@H](CCCCNC(=O)CCCc2ccc(I)cc2)C(=O)O)C(=O)[O-])CC1.[111In+3] (some centres unmarked) [[^111In]In-PSMA-DA1] = 9.52

I'm curious: which Spleen was measured for O=C([O-])CN(Cc1cccc(C(=O)[O-])n1)C[C@H](Cc1ccc(NC(=O)[C@H](CCCCNC(=O)CCC(=O)NCCCC[C@H](NC(=O)N[C@@H](CCC(=O)O)C(=O)O)C(=O)O)NC(=O)COCCOCCOCC(=O)N[C@@H](CCCCNC(=O)CCCc2ccc(I)cc2)C(=O)O)cc1)N(CC(=O)[O-])Cc1cccc(C(=O)[O-])n1.[111In+3] [[^111In]In-Octapa-3] tested on LNCaP tumor-transplanted mouse?
7.42

* * *

Test system: LNCaP tumor-transplanted mouse
Assay: Internal radioactivity distribution using LNCaP tumor-transplanted mouse
Assay type: in vivo
Settings: 48 h after administration
Experimental: The animal test was performed in compliance with the guidelines of Kyoto University Animal Experiment Committee. […] LNCaP or PC-3 tumor-implanted mice were administered saline solutions (185 kBq, 100 μL) of [^111In]In-PSMA-DA1 or [^111In]In-PSMA-DB from the tail vein (n=3 each). […] Thereafter, blood and each organ were recovered, and the mass and radioactivity of the organs were measured. […]
recorded metric: Spleen (% ID/g)
Your answer should be a plain number; it is taken to be in % ID/g.

If you can, please state the reported Spleen value of O=C(O)CC[C@H](NC(=O)N[C@@H](CCCCNC(=O)[C@H](Cc1ccc2ccccc2c1)NC(=O)[C@H]1CC[C@H](CNC(=O)CCC(C(=O)O)N2CCN(CC(=O)O)CCN(C(CCC(=O)N[C@@H](CCCCNC(=O)CCCc3ccc(I)cc3)C(=O)O)C(=O)O)CCN(CC(=O)O)CC2)CC1)C(=O)O)C(=O)O (stereo partly shown) [[^111In]In-PSMA-NAT-DA1, metal not drawn] .
17.8

* * *

This section presents compounds with their documented LNCaP Tumor values.
tested on: LNCaP tumor-transplanted mouse; experiment: Internal radioactivity distribution using LNCaP tumor-transplanted mouse; assay type: in vivo; conditions: 24 h after administration
Your answer should be a plain number; it is taken to be in % ID/g.

If you can, please state the reported LNCaP Tumor value of O=C([O-])CN(CCN(CCc1ccc(NC(=O)CCCCCNC(=O)CCC(=O)NCCCC[C@H](NC(=O)N[C@@H](CCC(=O)O)C(=O)O)C(=O)O)cc1)CCN(CC(=O)[O-])Cc1cccc(C(=O)[O-])n1)Cc1cccc(C(=O)[O-])n1.[111In+3] [[^111In]In-Neunpa-1, reference compound] .
0.28

* * *

This section presents compounds with their documented Pancreas values.
system: LNCaP tumor-transplanted mouse; test: Internal radioactivity distribution using LNCaP tumor-transplanted mouse; format: in vivo; details: 192 h after administration
Your answer should be a plain number; it is taken to be in % ID/g.

O=C(O)CC[C@H](NC(=O)N[C@@H](CCCCNC(=O)[C@H](Cc1ccc2ccccc2c1)NC(=O)[C@H]1CC[C@H](CNC(=O)CCC(C(=O)O)N2CCN(CC(=O)O)CCN(C(CCC(=O)N[C@@H](CCCCNC(=O)CCCc3ccc(I)cc3)C(=O)O)C(=O)O)CCN(CC(=O)O)CC2)CC1)C(=O)O)C(=O)O (stereo partly drawn) [[^111In]In-PSMA-NAT-DA1, metal not drawn] = 0.94
O=C([O-])CN1CCN(C(CCC(=O)NCCCC[C@H](NC(=O)N[C@@H](CCC(=O)O)C(=O)O)C(=O)O)C(=O)[O-])CCN(CC(=O)[O-])CCN(C(CCC(=O)N[C@@H](CCCCNC(=O)CCCc2ccc(I)cc2)C(=O)O)C(=O)[O-])CC1.[111In+3] (stereo partly drawn) [[^111In]In-PSMA-DA1] = 0.46
O=C([O-])CN(CCN(CCc1ccc(NC(=O)CCCCCNC(=O)CCC(=O)NCCCC[C@H](NC(=O)N[C@@H](CCC(=O)O)C(=O)O)C(=O)O)cc1)CCN(CC(=O)[O-])Cc1cccc(C(=O)[O-])n1)Cc1cccc(C(=O)[O-])n1.[111In+3] [[^111In]In-Neunpa-1, reference compound] = 0.37
O=C([O-])CN(Cc1cccc(C(=O)[O-])n1)C[C@H](Cc1ccc(NC(=O)CCCCCNC(=O)CCC(=O)NCCCC[C@H](NC(=O)N[C@@H](CCC(=O)O)C(=O)O)C(=O)O)cc1)N(CC(=O)[O-])Cc1cccc(C(=O)[O-])n1.[111In+3] [[^111In]In-Octapa-1, reference compound] = 0.05

If you can, please state the reported Pancreas value of O=C([O-])CN(CCN(CCc1ccc(NC(=O)[C@H](CCCCNC(=O)CCC(=O)NCCCC[C@H](NC(=O)N[C@@H](CCC(=O)O)C(=O)O)C(=O)O)NC(=O)CCCc2ccc(I)cc2)cc1)CCN(CC(=O)[O-])Cc1cccc(C(=O)[O-])n1)Cc1cccc(C(=O)[O-])n1.[111In+3] [[^111In]In-Neunpa-2] .
0.29

If you can, please state the reported Pancreas value of O=C([O-])CN(Cc1cccc(C(=O)[O-])n1)C[C@H](Cc1ccc(NC(=O)[C@H](CCCCNC(=O)CCC(=O)NCCCC[C@H](NC(=O)N[C@@H](CCC(=O)O)C(=O)O)C(=O)O)NC(=O)COCCOCCOCC(=O)N[C@@H](CCCCNC(=O)CCCc2ccc(I)cc2)C(=O)O)cc1)N(CC(=O)[O-])Cc1cccc(C(=O)[O-])n1.[111In+3] [[^111In]In-Octapa-3] .
0.07
